Test system: CP329
method-description: qHTS profiling for inhibitors of Plasmodium falciparum proliferation (AID 504749); note: nearly all actives have a fitted effect of over 60% in size
test-parameters: P. falciparum in erythrocytes, SYBR Green DNA, 72 h; series mostly up to 28.7 µM
Inconclusive results are not listed. The source made the active and inactive calls. Calls come from the whole dose curve; as a rule, active = well fitted inhibition curve with a large enough effect; inconclusive = small, poorly fitted or top-dose-only effect; inactive = flat fitted curve, though single readings scatter.
Just give me one of these, please: active, inactive

A selection of reference data follows.
- O=C(O)CN1C(=O)c2cccc3cccc(c23)C1=O: inactive
- CC(=O)c1ccc2c(c1)N(CCCN(C)C)c1ccccc1S2: inactive
- NC(=O)N/N=C/c1ccc([N+](=O)[O-])o1: inactive
- Nc1ccc(S(=O)(=O)NC(=O)c2ccccc2)cc1: inactive
- O=C1OC(OC(=O)c2cccnc2Nc2cccc(C(F)(F)F)c2)c2ccccc21 (stereo unspecified): inactive

Then this compound:
INPUT: Per the records of this test, what outcome belongs to CCCCN(CCCC)CC(O)c1cc(Cl)cc2c1-c1ccc(Cl)cc1/C2=C/c1ccc(Cl)cc1 (stereo unspecified) ?
OUTPUT: active

// data source = PubChem BioAssay (NCATS)
